tested on: HT29 colon; experiment: NCI tumour cell line growth inhibition, 48 h
Answer each item with its documented TGI.

Please review the following examples before continuing.
MOLECULE	READING
Cc1ccc2c(c1)C(=O)C1(C2)Cc2cccc(C)c2C1=O (stereo not drawn)	> 100 µM
CCn1c(-c2ccc(OC(C)=O)cc2)c(C)c2cc(OC(C)=O)ccc21	89.6 µM
C=C1C(=O)C=C[C@]2(C)CC[C@H]3C(=C)C(=O)O[C@@H]3[C@@H]12	3.24 µM
CC(C(O)Cc1ccccc1)N(C)N=Nc1ccc([N+](=O)[O-])cc1 (stereo not drawn)	37.2 µM
Cn1c(=O)c(Cc2ccccc2F)cc2cnc(NC3CCOCC3)nc21	> 25 µM

Parameters: items (list). Returns: TGI for each item.
1. CC1=C(C(=O)Nc2ccc(F)c(Cl)c2)C(c2cccc(O)c2)NC(=O)N1 (stereo not drawn)
2. O=C(CN(c1ccccc1)c1ccccc1)n1nnc2ccccc21

[A]
> 100 µM
> 100 µM

Parameters: items (list). Returns: TGI for each item.
1. CC(=O)NC1c2ccccc2C(C)(C)C12CCC1(CC2)OCCO1 (stereo not drawn)
2. COc1cc(/C=C(\C#N)c2ccccc2)cc(OC)c1
3. CCOC(=O)c1ccc(C)c(N=NN(C)C)c1
4. Nc1[nH]nc2nc3ccc(C(F)(F)F)cc3nc12
5. COc1cc(/C=C/c2cc(/C=C/c3ccc(O)c(OC)c3)n(C(=O)Nc3ccc(C)cc3C)n2)ccc1O
6. CC(=O)O[C@]12CCCCCC1C1(O)C(O)CCCC[C@H]12 (stereo partly drawn)

[A]
> 100 µM
> 100 µM
> 100 µM
> 100 µM
3.59 µM
> 100 µM

Parameters: items (list). Returns: TGI for each item.
1. NC(=O)NCc1c(C(N)=O)ncn1Cc1ccccc1
2. O=C1CCCC[C@H]1[C@H]1CCC[C@@H]([C@H]2CCCCC2=O)C1=O
3. CSc1ncnc2c1ncn2CCC#N

[A]
1: > 100 µM; 2: > 100 µM; 3: > 100 µM
